Source of measurements: patent US20180258181A1

Molecular target: mesothelin on OVCAR-3 cells (UniProt Q13421)
Assay: FACS titration, EC50 on OVCAR-3 against EC50 on NCI-H226
experimentalEndpoint: x-fold different EC50 on OVCAR-3 vs. NCI-H226
Note: state the figure and append the unit.

// solved cases for x-fold different EC50 on OVCAR-3 vs. NCI-H226 follow
• MOR06638 IgG (antibody, V domains shown) VH: QVQLVQSGAEVKKPGASVKVSCKASGYTFTGNYINWVRQAPGQGLEWMGIINPHGGDTKYAQKFQGRVTMTRDTSISTAYMELSSLRSEDTAVYYCARWHHGTWIFDYWGQGTLVTVSS VL: DIVLTQPPSVSGAPGQRVTISCSGSSSNIGSNYVSWYQQLPGTAPKLLIYNDNQRPSGVPDRFSGSKSGTSASLAITGLQSEDEADYYCSSWDRADGSYVFGGGTKLTVLG = 22.1 fold
• MOR06626 IgG (antibody, V domains shown) VH: QVQLVQSGAEVKKPGASVKVSCKASGYTFTGNYINWVRQAPGQGLEWMGIINPTKGWTLYAQKFQGRVTMTRDTSISTAYMELSSLRSEDTAVYYCARWHHGTWIFDYWGQGTLVTVSS VL: DIVLTQPPSVSGAPGQRVTISCSGSSSNIGSNYVSWYQQLPGTAPKLLIYNDNQRPSGVPDRFSGSKSGTSASLAITGLQSEDEADYYCSTYDRRTFSVFGGGTKLTVLG = 22 fold

Q: Which x-fold different EC50 on OVCAR-3 vs. NCI-H226 value is on record for MOR06657 IgG (antibody, V domains shown) VH: QVQLVQSGAEVKKPGSSVKVSCKASGGTFSSYYFSWVRQAPGQGLEWMGGIIPKFGSANYAQKFQGRVTITADESTSTAYMELSSLRSEDTAVYYCARRTSMDYWGQGTLVTVSS VL: DIALTQPASVSGSPGQSITISCTGTSSDVGGYNYVSWYQQHPGKAPKLMIYSVSKRPSGVSNRFSGSKSGNTASLTISGLQAEDEADYYCATWDHSQMGKVFGGGTKLTVLG ?
Result: 14 fold
